Quick reference: Ki of the listed items.
target: LIMK1 (Homo sapiens (Human), UniProt P53667); assay: Lanthascreen Eu binding assay (TR-FRET), inhibition of LIMK1; details: Lanthascreen Eu binding assay
Sequence (P53667 whole entry): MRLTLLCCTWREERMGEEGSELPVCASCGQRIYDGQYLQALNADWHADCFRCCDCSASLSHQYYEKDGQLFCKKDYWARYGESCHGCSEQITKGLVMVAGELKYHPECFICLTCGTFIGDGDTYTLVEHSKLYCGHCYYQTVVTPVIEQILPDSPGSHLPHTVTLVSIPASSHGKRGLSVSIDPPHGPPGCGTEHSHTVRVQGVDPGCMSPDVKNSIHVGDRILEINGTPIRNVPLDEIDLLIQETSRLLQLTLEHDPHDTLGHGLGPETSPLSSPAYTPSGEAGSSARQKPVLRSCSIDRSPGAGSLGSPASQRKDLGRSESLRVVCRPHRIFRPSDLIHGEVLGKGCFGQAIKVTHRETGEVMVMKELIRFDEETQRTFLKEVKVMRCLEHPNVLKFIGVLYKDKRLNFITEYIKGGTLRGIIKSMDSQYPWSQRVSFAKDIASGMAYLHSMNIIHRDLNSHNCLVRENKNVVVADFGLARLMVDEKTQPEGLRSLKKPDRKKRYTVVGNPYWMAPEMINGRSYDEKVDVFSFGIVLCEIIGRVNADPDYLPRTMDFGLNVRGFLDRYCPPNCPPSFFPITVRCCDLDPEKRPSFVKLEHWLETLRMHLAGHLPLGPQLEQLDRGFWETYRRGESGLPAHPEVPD
Kindly provide the numeric value in nM only, without the unit symbol.

# compound, numeric.result
records = [
    ("O=C(Nc1cccc(F)c1)N1CC=C(c2ncnc3[nH]c4c(c23)CCCC4)CC1 [Compound 113]", 7.13),
    ("COc1cccc(NC(=O)N2CC=C(c3ncnc4[nH]c5c(c34)CCC5)CC2)c1 [Compound 121]", 6.1),
    ("O=C(Nc1ccccc1)N1CC=C(c2ncnc3[nH]c4c(c23)CCC4)CC1 [Compound 119]", 7.98),
]

stdin: Fill in: Ki of N#Cc1cccc(NC(=O)N2CC=C(c3ncnc4[nH]c5c(c34)CCC5)CC2)c1 [Compound 127] is ___
stdout: 8.19
